Here the recorded GI50 is given for each entry.
- System: T47D
- EXPERIMENT: NCI tumour cell line growth inhibition, 48 h
Activity calls are given as the source filed them. No stated cut-off is given here; in the data, active = GI50 up to about 1.1 µM and inactive = higher.

**Q:** Entry `Cc1nc2c(C)ccc([N+](=O)[O-])c2c(NCCCN(C)C)c1C` , system T47D: what GI50 was measured?
**A:** > 100 µM (inactive)

***
**Q:** Value wanted: GI50 (T47D) of entry `Cc1cccc(C)c1NC(=O)C(=O)CC(=O)c1sc(Nc2c(C)cccc2C)nc1C`
**A:** > 100 µM (inactive)

**Q:** Hi! What's the reported GI50 for CN(Cc1cnc2nc(N)nc(N)c2n1)c1ccc(C(=O)NC(CCC(=O)NCC(P(=O)(O)O)P(=O)(O)O)C(=O)O)cc1 (stereo not given) on T47D?
**A:** 40 µM (inactive)

**Q:** Recorded GI50 for O=C1c2ccccc2NC2C(O)c3ccccc3N12 (stereo not given) with T47D, please?
**A:** 6.5 µM (inactive)

**Q:** API: value(readout=GI50, system=T47D) for record `CCOC(=O)N1CCN(c2c(C)nc(C)nc2O)CC1`
**A:** > 100 µM (inactive)

**Q:** Missing value: GI50, T47D, entry `Cn1c(-c2cccs2)cc(-c2ccsc2)c1-c1cccs1` . Fill in?
**A:** 3.04 µM (inactive)

**Q:** Observed GI50 on T47D for `COc1cc(C=C2N=C(c3ccccc3)N(n3c(-c4ccccc4)nc4ccccc4c3=O)C2=O)cc(OC)c1OC` , please.
**A:** 20.3 µM (inactive)

====

- System: BT-549
- EXPERIMENT: NCI tumour cell line growth inhibition, 48 h
The source made the active and inactive calls. Rule as the data show it: active = GI50 up to about 1.1 µM and inactive = higher.
Reported GI50 values for a set of compounds

Answered examples (2):
**Q:** // lookup GI50 for `COc1ccc2oc(=O)c(-c3nc4ccccc4o3)cc2c1`
**A:** > 100 µM (inactive)

**Q:** Report GI50 for `O=c1[nH]c(=O)c2c([nH]1)[nH]c1ccc(Br)cc12` please.
**A:** > 100 µM (inactive)

---
**Q:** Sample O=C(O)CCC(=O)OC1N=C(c2ccccc2Cl)c2cc([N+](=O)[O-])ccc2NC1=O (stereo not given) — what was its GI50?
**A:** 89.1 µM (inactive)

**Q:** What does the record list as GI50 for `COc1cc2c(cc1O)[C@@H]1Cc3c(cc(OC)c(OC)c3Oc3cc4c(cc3OC)CCN(C)[C@@H]4Cc3ccc(O)cc3)[C@H](C2)N1C` ?
**A:** 41.2 µM (inactive)

**Q:** # lookup: GI50 of `c1ccc(C(C2=Nc3cccc4cccc(c34)N2)c2ccccc2)cc1`
**A:** 22 µM (inactive)

====

- System: UACC-257
- EXPERIMENT: NCI tumour cell line growth inhibition, 48 h
Activity calls are given as the source filed them. No stated cut-off is given here; in the data, active = GI50 up to about 1.1 µM and inactive = higher.
Write down the outcome that applies. Available outcomes: active, inactive

**Q:** What was the test verdict on `COc1ccc(-n2c(N)c(C#N)c(C#N)c2-c2ccco2)cc1` ?
**A:** inactive

**Q:** Which outcome was entered for the compound `CN(C)/C=C/C=C(/C=N/S(=O)(=O)C(F)(F)F)C1C=CN(S(=O)(=O)C(F)(F)F)C=C1` in this test?
**A:** inactive

**Q:** Write down the call the test reported for this compound. Item: `COc1cc2c(cc1O)[C@@H]1Cc3c(cc(OC)c(OC)c3Oc3cc4c(cc3OC)CCN(C)[C@@H]4Cc3ccc(O)cc3)[C@H](C2)N1C`
**A:** inactive

**Q:** Tell me the assay call for `CC(C)(C)[C@H]1CO[C@]2(C)[C@@H]3C[C@@H]3C(=O)N12` please.
**A:** inactive

**Q:** Just curious, what result did CC(CO)CCNc1ncnc2c1ncn2CCC(=O)OC(C)(C)C (stereo not given) get here?
**A:** inactive

**Q:** Which result was noted for this compound in the test: CC(=O)C(CN(CC(C)C)CC(C)C)C(c1ccccc1)c1c(O)c2ccccc2oc1=O (stereo not given)
**A:** inactive

***
**Q:** Which outcome was assigned to CC1=NN(c2cc(Cl)c(S(=O)(=O)O)cc2Cl)C2(C1)C(Cl)C(=O)N2c1nc2ccccc2s1 (stereo not given) in this test?
**A:** inactive

**Q:** // outcome(item) with item = CN(C)CCN(C)C(=O)C1CCCN1C(=O)OCc1ccccc1 (stereo not given)
**A:** inactive

**Q:** For `Cc1cccc2c(N)c3cccc(C(=O)NCC[N+](C)(C)Cc4sc(N5CCOCC5)nc4[N+](=O)[O-])c3nc12` , which call appears in the assay record?
**A:** inactive

**Q:** Returns: the outcome recorded for `Cn1c(-c2ccccc2)cc(-c2ccc3c(c2)OCO3)c1-c1ccsc1` in this assay.
**A:** inactive

**Q:** Hello, I am checking results. What call was entered for C=C(C)C1CC=C(C)CC1 (stereo not given) ?
**A:** inactive

**Q:** Identify the outcome logged in this assay for the compound shown: O=C1O[B-](c2ccccc2)(c2ccccc2)[NH+]2CCCC12 (stereo not given)
**A:** inactive

**Q:** Called result for COC(=O)C(Cc1c[nH]c2ccccc12)NP(=O)(O)OCC1OC(n2cc(I)c(=O)[nH]c2=O)CC1O (stereo not given)
**A:** inactive

**Q:** // param item: `NC(C(F)(F)F)(C(F)(F)F)P(=O)(Cc1ccccc1)Cc1ccccc1` ; yields the recorded call
**A:** inactive

**Q:** Recorded test call requested for `COc1ccc(NC(=O)CC/C(CC(=O)c2ccco2)=N/Nc2ccc([N+](=O)[O-])cc2[N+](=O)[O-])cc1`
**A:** inactive

**Q:** Outcome? C=CCC1(CN(C)C)CC/C(=C\c2cc(OC)c(OC)c(OC)c2)C1=O (stereo not given)
**A:** inactive

**Q:** Field: outcome | Entry: `Cc1cc(OCc2nc(N)nc(N)c2-c2ccc(Cl)c(Cl)c2)ccc1[N+](=O)[O-]`
**A:** active

**Q:** Record lookup: outcome of this test for O=C(NN1C(=O)C(Cl)C1c1cccc(Cl)c1)c1ccccc1O (stereo not given) ?
**A:** inactive

**Q:** Hello, I am checking results. What call was entered for `S=C(Nc1cccc(Cl)c1)Nc1ccccn1` ?
**A:** inactive

**Q:** What did the test return for `COC(=O)[C@H]1COC(=O)N1` ?
**A:** inactive
